readout-name: melting point

>>> df
                      smiles_representation   readout_name  reported_result
0  O=C(/C=C/c1ccc(O)cc1)CC(=O)/C=C/c1ccccc1-c1cccc2ccccc12  melting point     95 to 101 °C

The recorded melting point for entry COc1cc(Br)c(/C=C/C(=O)CC(=O)/C=C/c2ccc(O)cc2)cc1O equals 224 to 229 °C

Record summary for COc1cc(O)ccc1/C=C/C(=O)CC(=O)/C=C/c1cc(OCc2ccccc2)ccc1[N+](=O)[O-] : reported melting point = 183 to 186 °C

Measured melting point of O=C(/C=C/c1ccc(O)cc1)CC(=O)/C=C/c1cc(F)ccc1-c1ccccc1 : 187 to 191 °C

Recorded values, source patent US8552220B2.
